Values from patent US20230235040A1

Each entry below carries its recorded pIC50.
- measured-on: T1, hu-IL-36γ (human IL-36γ, N-terminally truncated active form S18-D169) (human, UniProt Q9NZH8 18-169)
- T1 construct: Purification tag cleaved off; Biotinylated where captured; also called hu-IL-36g
- T1 sequence: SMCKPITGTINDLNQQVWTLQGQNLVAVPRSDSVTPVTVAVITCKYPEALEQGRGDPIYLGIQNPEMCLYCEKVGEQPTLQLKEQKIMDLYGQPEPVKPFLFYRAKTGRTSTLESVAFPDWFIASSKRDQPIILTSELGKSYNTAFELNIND
- test-details: phage competition ELISA: Fab on phage, soluble hu-IL-36γ titrated against coated hu-IL-36γ
Answer as the number alone; pIC50 is minus log10 of concentration in mol/L.

mAb2.5 Fab (phage-displayed) (Fab, V domains shown) VH: ELQLQESGPGLVKPSETLSLTCTVSGGSISESSYYWGWIRQPPGKGLEWIGSIYYTGNTYYLPSLKSRVTISVDTSKNQFSLKLSSVTAADTAVYYCARVRYGVGVPRYFDPWGQGTLVTVSS VL: ESVLTQPPSVSGAPGQRVTISCTGSSSNIGAHYDVHWYQQLPGTAPKLLIYGNDNRPSGVPDRFSGSKSGTSASLAITGLQAEDEADYYCQSYDYSLSGYVFGGGTKLTVL : 8.73

Attention now turns to another entry.
[in] Read off the recorded pIC50 for mAb2.3 Fab (phage-displayed) (Fab, V domains shown) VH: ELQLQESGPGLVKPSETLSLTCTVSGGSISTSSDYWGWIRQPPGKGLEWIGSIYYTGNTYYLPSLKSRVTISVDTSKNQFSLKLSSVTAADTAVYYCSRVRYGVGVPRYFDPWGQGTLVTVSS VL: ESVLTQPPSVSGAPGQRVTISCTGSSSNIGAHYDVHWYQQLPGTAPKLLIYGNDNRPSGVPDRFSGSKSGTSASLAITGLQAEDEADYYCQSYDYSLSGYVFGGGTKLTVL
[out] 8.62
